# testedSystem: purified HLA DRB1 *0802 (Homo sapiens, UniProt P01903+P01911, A100R/A103L/A169T/F76Y/H45Y/I96F/K41T/L162R/M171V/P40S/Q125H/Q178H/Q39Y/Q99D/R218S/R42G/S66Y/V115G/W38E)
# experimentalProtocol: IC50nM to purified HLA | DRB1 *0802
Where no end group is shown, it is not given here.
Rule: IC50 below 8 nM gives True, anything at or above gives False.

Just wondering, is IC50 of AAAWFVAANTLHAAA [SEQ ID NO: 10] below 8 nM?
False

Just wondering, is IC50 of AAAHFVAAWTLHAAA [SEQ ID NO: 26] below 8 nM?
False

Just wondering, is IC50 of AAAHFVAAYTLHAAA [SEQ ID NO: 27] below 8 nM?
False

Just wondering, is IC50 of AAAWFVAAWTLKAAA [SEQ ID NO: 5] below 8 nM?
False

Just wondering, is IC50 of AAAYFVAAWTLHAAA [SEQ ID NO: 21] below 8 nM?
False

Just wondering, is IC50 of AAAYFVAAFTLHAAA [SEQ ID NO: 23] below 8 nM?
True
